System: SF-539 CNS
measurement protocol: NCI tumour cell line growth inhibition, 48 h
reported metric: TGI

Problem: Provide only the value of recorded TGI for `O=c1[nH]nc(Cc2ccc(Cl)cc2)n1/N=C/c1c[nH]c2ccccc12`
Solution: > 100 µM

Problem: Entry CCOC(=O)C(NC(=O)CC)(Nc1ccc(S(=O)(=O)Nc2ccc(OC)nn2)cc1)C(F)(F)F (stereo not drawn) needs its TGI filled in; supply it.
Solution: > 100 µM

Problem: Return TGI for the following molecule: O=C1O[C@H]2C3C4CCC(C4[C@@H]2I)[C@H]13 (stereo partly drawn)
Solution: > 100 µM

----------
Test system: SNB-75 CNS
measurement protocol: NCI tumour cell line growth inhibition, 48 h
Each entry below lists one item and its recorded TGI value.

Consider the worked cases shown below.
molecule: CCOC(OCC)C(CC)[Se]c1ccccc1 (configuration not stated)
system: SNB-75 CNS
TGI: > 100 µM
--
molecule: COc1cc(C2c3cc(OC)c(OC)c(O)c3C(=O)C3CCC(=O)N32)cc(OC)c1OC (configuration not stated)
system: SNB-75 CNS
TGI: > 100 µM

Problem: Answer with the recorded TGI of O=c1ccn(C2(CO)C=C(CO)C(O)C2O)c(=O)[nH]1 (configuration not stated) only.
Solution: > 25.7 µM

----------
Overview of recorded TGI for various molecules
Test system: MALME-3M melanoma
measurement protocol: NCI tumour cell line growth inhibition, 48 h

molecule: COc1cc(/C(=C2/O[C@@H]([C@H]3COC(C)(C)O3)[C@H]3OC(C)(C)O[C@@H]23)c2ccc3c(c2)OCO3)cc(OC)c1OC
system: MALME-3M melanoma
assay value: > 25 µM

Problem: Provide measured TGI value, entry: CCOC(=O)C(NC(=O)CC)(Nc1ccc(S(=O)(=O)Nc2ccc(OC)nn2)cc1)C(F)(F)F (stereo not drawn)
Solution: > 100 µM

Problem: Kindly indicate its recorded TGI. Item: `Oc1ccc2ccccc2c1N=Nc1ccc(Cl)cc1`
Solution: > 100 µM

----------
In this section we review reported TGI values for a set of compounds.
Test system: K-562 leukemia
measurement protocol: NCI tumour cell line growth inhibition, 48 h
Reply with just the number (in µM).

Before answering, review these 4 worked examples.
compound: CC(C)C1=C(Cc2ccccc2)C(=O)O/C1=C\c1ccc(O)c(Cl)c1
measurement unit: µM
TGI: 38.8
//
compound: Fc1ccc([C@@H]2CCNC[C@H]2COc2ccc3c(c2)OCO3)cc1
measurement unit: µM
TGI: 6.24
//
compound: Cc1cc(NCc2cc(Nc3ccnc4cc(Cl)ccc34)ccc2F)nc(N2CCSCC2)n1
measurement unit: µM
TGI: 3.35
//
compound: C[C@@H](Oc1cc(-n2cnc3ccc(OCC4CCN(C)CC4)cc32)sc1C(N)=O)c1ccccc1Cl
measurement unit: µM
TGI: 3.34

Problem: Return TGI (reported value) for this compound: CCOc1ccc(NCC2CC/C(=C\c3ccc(Cl)cc3)C2=O)cc1 (stereo unspecified)
Solution: 34.9

Problem: In one line, give reported TGI of the entry c1ccc2c(c1)Sc1ccccc1N2C1CN2CCC1CC2 (stereo unspecified) .
Solution: 29.5

----------
Test system: SF-295 CNS
measurement protocol: NCI tumour cell line growth inhibition, 48 h
reported metric: TGI

compound: O=C1c2cccc3c(Cl)ccc(c23)C(=O)N1CCCN1CCN(CCCN2C(=O)c3cccc4c(Cl)ccc(c34)C2=O)CC1
system: SF-295 CNS
TGI: > 100 µM

Problem: Retrieve TGI measured for OCC1OC(c2ccccc2)CC1O (stereo not drawn) and print it.
Solution: > 100 µM

Problem: Using known records, supply TGI for `N#Cc1c(N2CCCC2)nsc1Nc1ccc(F)cc1`
Solution: > 100 µM
